src = PubChem BioAssay AID2823

target: RanGTP-importin-beta complex (human Ran / KPNB1); experiment: disruptors of RanGTP/KPNB1 binding – biochemical, FRET, CFP/YFP, cell-free homogeneous, confirmation (AID 2823); details: CFP-Ran/YFP-importin-beta FRET ratio
Activity calls are given as the source filed them. How the calls were made is not given here.
Entry note: the call must match one of active, inactive

Task item: Recorded call for CCn1c2ccccc2c2cc(NC(=O)CNC)ccc21 ?
Reply: inactive

Task item: Hi team, can someone confirm the assay call for O=[N+]([O-])c1ccc(Nc2c3ccccc3nc3ccccc23)cc1 ?
Reply: inactive

Task item: Status in this test for Cc1cccc(N2CCN(C(=O)C3COc4ccccc4O3)CC2)c1C (stereo not given) ?
Reply: inactive

Task item: What call does the record list for O=C(Nc1nonc1NC(=O)c1cccs1)c1cccs1 ?
Reply: inactive
